system: Escherichia coli K88
quantity name: MIC (µM)
Quick reminder: number only, in µM, skip the unit.

Some solved entries appear below for comparison.
Q. // lookup MIC | system=Escherichia coli K88 | key= CC[C@H](C)[C@H](NC(=O)[C@H](CCCN=C(N)N)NC(=O)[C@H](C)NC(=O)[C@H](C)N)C(=O)N[C@H](C(=O)N[C@@H](CC(C)C)C(=O)N[C@@H](CCCN=C(N)N)C(=O)N[C@@H](CCCN=C(N)N)C(=O)N[C@@H](CCCN=C(N)N)C(=O)N[C@@H](Cc1ccccc1)C(=O)N[C@@H](CCCN=C(N)N)C(N)=O)[C@@H](C)CC
A. 16

Q. For the record CC[C@H](C)[C@H](NC(=O)[C@H](CCCN=C(N)N)NC(=O)[C@H](CC(C)C)NC(=O)[C@@H](NC(=O)[C@@H](NC(=O)[C@H](CCCN=C(N)N)NC(=O)[C@H](C)NC(=O)[C@H](C)N)[C@@H](C)CC)[C@@H](C)CC)C(=O)N[C@@H](CCCN=C(N)N)C(=O)N[C@@H](Cc1ccccc1)C(=O)N[C@@H](CCCN=C(N)N)C(N)=O , what value of MIC is listed for Escherichia coli K88?
A. 2

Moving on to another molecule below.
Q. Enter reported MIC observed with Escherichia coli K88 for CC[C@H](C)[C@H](NC(=O)[C@H](CCCN=C(N)N)NC(=O)[C@H](C)NC(=O)[C@H](C)N)C(=O)N[C@H](C(=O)N[C@@H](CC(C)C)C(=O)N[C@@H](CCCN=C(N)N)C(=O)N[C@@H](C)C(=O)N[C@@H](CCCN=C(N)N)C(=O)N[C@@H](Cc1ccccc1)C(=O)N[C@@H](CCCN=C(N)N)C(N)=O)[C@@H](C)CC
A. 2

Origin of the recorded values: DBAASP
